Test system: SNB-19
Test: NCI tumour cell line growth inhibition, 48 h
Activity calls are given as the source filed them. Rule as the data show it: active = GI50 up to about 1.1 µM and inactive = higher.
Valid outcomes are listed here; reply with one: 1.0 for active, 0.0 for inactive

molecule | system_under_test | category
CC(=O)Oc1c(OC(C)=O)c(-c2ccc(O)c(O)c2)c(O)c(O)c1-c1ccc(O)cc1 | SNB-19 | 0.0
c1ccc(C2=Nc3nc4ccccc4n3C(c3ccccc3)C2)cc1 (stereo unspecified) | SNB-19 | 0.0

Then this molecule:
Q: Kindly provide the recorded test outcome for the following molecule: Oc1ccc2ccccc2c1C(c1ccc(Cl)cc1)c1c(O)ccc2ccccc12
A: 0.0

---

Tested on: SNB-75
Assay: NCI tumour cell line growth inhibition, 48 h
Calls of active or inactive are those of the source. Rule as the data show it: active = GI50 up to about 1.1 µM and inactive = higher.
attribute_measured: GI50

Solved cases below.
compound | GI50
CSC(SC)=C(C#N)C(=O)Nc1cccc(Cl)c1 | > 100 µM (inactive)
C[C@]12CCC(=O)C=C1CC[C@@H]1[C@@H]2[C@@H](O)C[C@@]2(C)[C@H]1CC[C@]2(O)C(=O)COC(=O)COCC(=O)O | > 100 µM (inactive)
CC(C)OP(=O)(OC(C)C)/C(=N/Nc1ccc([N+](=O)[O-])cc1)NNC(=O)c1ccccc1 | 73.5 µM (inactive)

We now examine a further compound.
Q: For the compound COC1CC(OC2C(C)OC(OC3C(C)OC(OC4C(C)OC(O[C@H]5CC[C@@]6(C)C(=CC[C@]7(O)[C@@H]6C[C@@H](O)[C@@]6(C)[C@]7(O)CC[C@@]6(O)C(C)=O)C5)CC4OC)CC3OC)CC2OC)OC(C)C1O (some centres undefined) , what GI50 is on record?
A: > 12.5 µM (inactive)

---

Tested on: NCI-H23
Test: NCI tumour cell line growth inhibition, 48 h
The source made the active and inactive calls. Cut-off read from the data, not from the text of the source: active = GI50 up to about 1.1 µM and inactive = higher.
Each entry below lists one item and its recorded GI50 value.

Solved cases below.
compound | system_under_test | GI50
CN1CCc2c(sc3ncn(Nc4ccc(F)cc4)c(=N)c23)C1 | NCI-H23 | > 100 µM (inactive)
C[C@]12CC[C@H](O)CC1=CC[C@@H]1[C@@H]2CC[C@]2(C)C(=N/N)/C(=N\O)C[C@@H]12 | NCI-H23 | > 100 µM (inactive)
CCOC(=O)CCN1C(=O)c2ccc(NC(=O)C(=O)O)cc2S1(=O)=O | NCI-H23 | > 100 µM (inactive)
CC(C)c1cccc(C(=O)NCCN(C)C)c1[N+](=O)[O-] | NCI-H23 | > 100 µM (inactive)
CCCCCCCCCCNC1CC(OC2CC(O)(C(O)CO)Cc3c(O)c4c(c(O)c32)C(=O)c2c(OC)cccc2C4=O)OC(C)C1O (stereo not given) | NCI-H23 | 2.63 µM (inactive)
Oc1ccc(O)c(-n2cccn2)c1 | NCI-H23 | > 100 µM (inactive)
CCCCCCCCSC(SCCCCCCCC)=C1C(=O)N(c2ccccc2)N=C1C | NCI-H23 | 32.8 µM (inactive)
N#C/C(N)=C(C#N)/N=C/Nc1ccccc1N | NCI-H23 | > 100 µM (inactive)
CCOC(=O)c1c2c(n3ccccc13)C(=O)c1ccccc1C2=O | NCI-H23 | 42.2 µM (inactive)

We now examine a further compound.
Q: // lookup GI50 | system=NCI-H23 | key= O=C1C(Sc2ccc3ccccc3c2)=C(Sc2ccc3ccccc3c2)C(=O)c2ccccc21
A: 5.13 µM (inactive)

---

Tested on: MOLT-4
Assay: NCI tumour cell line growth inhibition, 48 h
The source made the active and inactive calls. No stated cut-off is given here; in the data, active = GI50 up to about 1.1 µM and inactive = higher.
Valid outcomes are listed here; reply with one: active, inactive

compound | category
CCCCCC(=O)N[C@@H](c1ccco1)[C@@H](O)C(=O)O[C@H]1C[C@@]2(O)[C@@H](OC(=O)c3ccccc3)[C@@H]3[C@]4(OC(C)=O)CO[C@@H]4C[C@H](O)[C@@]3(C)C(=O)[C@H](OC(C)=O)C(=C1C)C2(C)C | active
COC(=O)C1CCC2(CC1)NC(=O)NC2=O (stereo not given) | inactive

Q: Kindly provide the recorded test outcome for the following compound: O=Cc1c(-c2ccccc2)nc2ccccc2c1O
A: inactive

Q: Kindly provide the recorded test outcome for the following compound: N#CNC(=N)NC(=O)/C=C/C=C/c1ccc(Cl)cc1
A: inactive

Q: Kindly provide the recorded test outcome for the following compound: O=C1c2ccccc2C(=O)N1C1(C(=O)NC2(C(=O)O)CCCC2)CCCC1
A: inactive

Q: Kindly provide the recorded test outcome for the following compound: CCOC(=O)c1c2c(n3ccccc13)C(=O)c1ccccc1C2=O
A: inactive

Q: Kindly provide the recorded test outcome for the following compound: c1ccc([P+](c2ccccc2)(c2ccccc2)c2ccc([P+](c3ccccc3)(c3ccccc3)c3ccccc3)cc2)cc1
A: inactive

---

Tested on: SNB-75
Assay: NCI tumour cell line growth inhibition, 48 h
Activity calls are given as the source filed them. Rule as the data show it: active = GI50 up to about 1.1 µM and inactive = higher.
attribute_measured: GI50

Solved cases below.
molecule | system_under_test | readout_value
Cc1ccc2c(c1C)C(=O)C1(Cc3cc4c(cc3C1=O)CCC4)C2 (configuration not stated) | SNB-75 | > 100 µM (inactive)
CN(C)CC(O)c1ccc(Cl)c2ccccc12 (configuration not stated) | SNB-75 | 17.4 µM (inactive)
CC(O)C1CC1(CO)CNc1cc(Cl)nc(N)n1 (configuration not stated) | SNB-75 | > 100 µM (inactive)
Cc1cn(C2CC(N=[N+]=[N-])C(CO)O2)c(=O)n(CCCCBr)c1=O (configuration not stated) | SNB-75 | 63.2 µM (inactive)
O=C(NNC(=S)Nc1ccccc1)c1ccccc1Nc1ccccc1C(=O)NNC(=S)Nc1ccccc1 | SNB-75 | 22.4 µM (inactive)
O=C1CCC(c2nc3cc(Cl)ccc3o2)C(=O)N1 (configuration not stated) | SNB-75 | 64.7 µM (inactive)
O=C1C=Cc2c(I)sc(I)c21 | SNB-75 | 30.1 µM (inactive)
COc1cccc2c1-c1nc(N)c3c(OC)cccc3c1C2=O | SNB-75 | 22.3 µM (inactive)

Q: // lookup GI50 | system=SNB-75 | key= CC(C)(C)NNC(=O)CCn1[nH]c(=O)c(Cl)c(Cl)c1=O
A: > 100 µM (inactive)

---

System: U-251
Test: NCI tumour cell line growth inhibition, 48 h
Calls of active or inactive are those of the source. Rule as the data show it: active = GI50 up to about 1.1 µM and inactive = higher.
Valid outcomes are listed here; reply with one: TRUE = active, FALSE = inactive

Please review the following examples before continuing.
compound | category
CC(=O)O[C@H]1C(=O)[C@@]2(C)C(C(OC(=O)c3ccccc3)[C@]3(O)C[C@H](OC(=O)C(OC(=O)CCCC(=O)NCCCN(C)C)C(NC(=O)c4ccccc4)c4ccccc4)C(C)=C1C3(C)C)C1(OC(C)=O)COC1C[C@@H]2O (some centres not stated) | TRUE
NNC(=O)c1nn[nH]c1C(=O)NN | FALSE
Cc1sc2nc3n(c(=O)c2c1C)N=C(c1ccccc1)CS3 | FALSE
COc1cc(N(CCC#N)CCC#N)ccc1/C=N\NC(=O)c1ccc(C)cc1 | FALSE
Cc1ccc(C(=O)NC(C)C)cc1/N=N/N(C)C | FALSE

Q: Kindly provide the recorded test outcome for the following compound: C#CCOCn1cnc2ncnc(N)c21
A: FALSE

Q: Kindly provide the recorded test outcome for the following compound: CCOC(=O)CNc1nnnn1C1OC(CO)C(O)C1O (configuration not stated)
A: FALSE

Q: Kindly provide the recorded test outcome for the following compound: CC1=C2CCCC2=C/C(=N/Nc2ccc([N+](=O)[O-])cc2[N+](=O)[O-])CC1
A: FALSE

---

Test system: NCI/ADR-RES
Assay: NCI tumour cell line growth inhibition, 48 h
Active and inactive are the calls of the source. No stated cut-off is given here; in the data, active = GI50 up to about 1.1 µM and inactive = higher.
Valid outcomes are listed here; reply with one: active, inactive

compound | category
Cc1cc(N(CC(C)Br)CC(C)Br)ccc1/N=N/c1ccccc1C(=O)O (centres undefined) | inactive
O=C1CSC(c2ccccc2)N1c1ccc(-n2c(-c3ccccc3)nc3ccccc3c2=O)cc1 (centres undefined) | inactive
COc1ccc(C(=O)/C=C/c2cc(O)c(O)c(F)c2F)c(OC)c1 | inactive
O=c1cc(CC(O)(C(F)(F)Cl)C(F)(F)Cl)[nH]n1-c1ccccc1 | inactive
CCC1(CC)N=C(C(F)(F)F)c2cc(C(=O)C(F)(F)F)c3ccccc3c2N1 | inactive
O=C1CN2Cc3cc(N4CCOCC4)ccc3N=C2N1 | inactive
C[C@]12CC[C@H](O)CC1=CC[C@@H]1[C@@H]2CC[C@]2(C)C(=N/N)/C(=N\O)C[C@@H]12 | inactive
COc1cc2c(cc1OC)C(=O)N(c1ccc(O)cc1)C2=O | inactive

Q: Kindly provide the recorded test outcome for the following compound: COc1cc(/C=N/NC(=O)c2ccc(NC(C)=O)cc2OC)ccc1O
A: inactive

Q: Kindly provide the recorded test outcome for the following compound: CS(=O)(=O)c1ccc2nc(-c3ccc(O)cc3)sc2c1
A: inactive

---

Test system: SW-620
Experiment: NCI tumour cell line growth inhibition, 48 h
The source made the active and inactive calls. Rule as the data show it: active = GI50 up to about 1.1 µM and inactive = higher.
Valid outcomes are listed here; reply with one: 1 (yes) (active), 0 (no) (inactive)

Q: Kindly provide the recorded test outcome for the following compound: O=c1c2ccccc2n2nnc3ccc(NCCNCCO)c1c32
A: 1 (yes)

Q: Kindly provide the recorded test outcome for the following compound: CCc1cc(Cc2cc(CC)c(NC(=O)C3=CC(=O)CC(c4ccc(OC)cc4)O3)c(CC)c2Cl)c(Cl)c(CC)c1NC(=O)C1=CC(=O)CC(c2ccc(OC)cc2)O1 (stereo not given)
A: 0 (no)

Q: Kindly provide the recorded test outcome for the following compound: Cc1ccc(C(=O)NC(C)C)cc1/N=N/N(C)C
A: 0 (no)

Q: Kindly provide the recorded test outcome for the following compound: O=C(Nc1ccc(I)cc1C(=O)NCCO)c1cccs1
A: 0 (no)

Q: Kindly provide the recorded test outcome for the following compound: O=C1CCc2cc([N+](=O)[O-])ccc2O1
A: 0 (no)

Q: Kindly provide the recorded test outcome for the following compound: O=S(=O)(CC(O)C(Cl)(Cl)Cl)NNc1ccccc1 (stereo not given)
A: 0 (no)

Q: Kindly provide the recorded test outcome for the following compound: CCOC(=O)NC1CN2CCC1CC2 (stereo not given)
A: 0 (no)

Q: Kindly provide the recorded test outcome for the following compound: Oc1ccc2ccccc2c1C(c1ccc(Cl)cc1)c1c(O)ccc2ccccc12
A: 0 (no)

Q: Kindly provide the recorded test outcome for the following compound: COc1ccc(-c2cc(-c3ccco3)c(C#N)c(=O)[nH]2)cc1
A: 0 (no)

Q: Kindly provide the recorded test outcome for the following compound: COc1cc2c(cc1OC)-c1c3cc(O)ccc3nn[n+]1CC2
A: 0 (no)

Q: Kindly provide the recorded test outcome for the following compound: COC(=O)[C@@H]1CO[C@H](C(C)(C)C)N1C(=O)N1C=CC(=O)C[C@H]1C
A: 0 (no)

Q: Kindly provide the recorded test outcome for the following compound: CC(=O)O[C@H]1C(=O)[C@@]2(C)C(C(OC(=O)c3ccccc3)[C@]3(O)C[C@H](OC(=O)C(OC(=O)CCCC(=O)NCCCN(C)C)C(NC(=O)c4ccccc4)c4ccccc4)C(C)=C1C3(C)C)C1(OC(C)=O)COC1C[C@@H]2O (stereo not given in full)
A: 1 (yes)

Q: Kindly provide the recorded test outcome for the following compound: OCC1CCCCN1Cc1nc2cc(Cl)ccc2[nH]1 (stereo not given)
A: 0 (no)

Q: Kindly provide the recorded test outcome for the following compound: COc1c(N2CCCCC2)c2c(=O)c3ccccc3oc2c2cc(C)oc12
A: 0 (no)

Q: Kindly provide the recorded test outcome for the following compound: Sc1nnc(COc2ccc(Cl)cc2)o1
A: 0 (no)

Q: Kindly provide the recorded test outcome for the following compound: N#CNC(=N)NC(=O)/C=C/C=C/c1ccc(Cl)cc1
A: 0 (no)

Q: Kindly provide the recorded test outcome for the following compound: CO[C@](C(=O)OC[C@H]1[C@@H](COC(C)=O)[C@@H]2O[C@H]1c1cc3c(cc12)OCO3)(c1ccccc1)C(F)(F)F
A: 0 (no)

Q: Kindly provide the recorded test outcome for the following compound: COc1ccc(CNc2nc3ccccc3nc2-c2cccs2)cc1OC
A: 0 (no)

Q: Kindly provide the recorded test outcome for the following compound: O=C1CSC(c2ccccc2)N1c1ccc(-n2c(-c3ccccc3)nc3ccccc3c2=O)cc1 (stereo not given)
A: 0 (no)

Q: Kindly provide the recorded test outcome for the following compound: CCN(CC)CCCNC(=O)c1ccccc1Nc1c(Cl)cccc1Cl
A: 0 (no)

Q: Kindly provide the recorded test outcome for the following compound: COc1cc2c(cc1OC)C(=O)N(c1ccc(O)cc1)C2=O
A: 0 (no)

Q: Kindly provide the recorded test outcome for the following compound: O=S(=O)(c1ccc2ccccc2c1)N1CCN(S(=O)(=O)c2ccc3ccccc3c2)CC1
A: 0 (no)

This collection of values is drawn from ChEMBL document CHEMBL1201862.
